Molecular target: PABP (PABPC1) (Homo sapiens, UniProt P11940 1-383)
Sequence (P11940 1-383): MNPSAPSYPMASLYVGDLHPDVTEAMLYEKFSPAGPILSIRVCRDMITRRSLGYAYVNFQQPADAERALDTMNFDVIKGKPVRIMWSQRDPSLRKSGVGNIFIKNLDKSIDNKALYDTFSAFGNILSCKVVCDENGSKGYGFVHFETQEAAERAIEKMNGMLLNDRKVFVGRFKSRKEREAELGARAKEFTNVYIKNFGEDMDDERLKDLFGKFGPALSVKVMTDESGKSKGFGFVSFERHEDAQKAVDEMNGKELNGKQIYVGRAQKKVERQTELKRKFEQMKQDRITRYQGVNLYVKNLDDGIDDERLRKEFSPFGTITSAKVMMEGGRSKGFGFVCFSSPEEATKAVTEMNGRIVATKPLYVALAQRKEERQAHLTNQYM
Assay: fluorescence polarization/anisotropy; text gives nM; Fig. 2d legend prints μM; FP: 50 mM HEPES, 5 mM EDTA, 250 mM KCl, 10 mM DTT, 0.5 mg/mL BSA, 0.05% Tween-20, 0.1 mg/mL yeast RNA, 0.5 nM Cy3-RNA (pH and temperature not stated). EMSA: 10
Conditions: protein: recombinant
pKd by entry:
FYI, pKd means -log10 of a concentration in mol per litre.

{"columns": ["Binder", "Observation type", "Assay result"],
 "data": [
  ["AAAAAAAAAAAA (XNA, 2'-O-methyl throughout; phosphorothioate at the 5' and 3' terminal linkages (A*AAAAAAAAAA*A)) [Poly(A) SPOT-ON]", "pKd", 6.52]
]}

// below: pKd requested for another binder
Incoming: Data request, read-out pKd, for AAAAAAAAAAAA (ssRNA) [unmodified 12-base Poly(A) RNA]
Outgoing: 6.58
